Experiment: Metabolic stability in male human liver microsomes at 1 uM after 30 mins
Type: ADME, Microsome

chemical.structure	half-life at 1 µM
CNCCCOc1cc(F)c(-c2c(Cl)nc(-c3cnccn3)nc2N[C@@H](C)C(F)(F)F)c(F)c1	> 1 h

----------
Assay: Aqueous solubility at pH 7.4 by shake flask method
Type: physicochemical
observed.property: solubility thermodynamic (µg/mL)

chemical.structure	observed.property	output.unit	value.measured
CNCCCOc1cc(F)c(-c2c(Cl)nc(-c3cnccn3)nc2N[C@@H](C)C(F)(F)F)c(F)c1	solubility thermodynamic	µg/mL	540

----------
Tested on: COLO 205
Assay: Antiproliferative activity against human COLO205 cells after 24 hrs by MTS assay
Type: functional, cell-based
Conditions: Homo sapiens, COLO 205, 24 h
pIC50: −log10 of the molar value.
Classify by measured pIC50: TRUE if it is equal to or exceeds 7, FALSE if it is smaller.

chemical.structure	group
Fc1cc(F)c(-c2c(Cl)nc(-c3cccnc3)nc2NCC(F)(F)F)c(F)c1	FALSE
Fc1cc(F)c(-c2c(Cl)nc(-c3ccccn3)nc2NCC(F)(F)F)c(F)c1	TRUE
Fc1cc(F)c(-c2c(Cl)nc(-c3ccncc3)nc2NCC(F)(F)F)c(F)c1	FALSE
Fc1cc(F)c(-c2c(Cl)nc(-c3ncccn3)nc2NCC(F)(F)F)c(F)c1	FALSE
CNCCCOc1cc(F)c(-c2c(Cl)nc(-c3cnccn3)nc2N[C@@H](C)C(F)(F)F)c(F)c1	TRUE
Fc1cc(F)c(-c2c(Cl)nc(-n3cccn3)nc2NCC(F)(F)F)c(F)c1	TRUE
C[C@H](Nc1nc(-n2cccn2)nc(Cl)c1-c1c(F)cc(F)cc1F)C(F)(F)F	TRUE
C[C@H](Nc1nc(-c2ccccn2)nc(Cl)c1-c1c(F)cc(F)cc1F)C(F)(F)F	TRUE
CNCCCOc1cc(F)c(-c2c(Cl)nc(-n3cccn3)nc2N[C@@H](C)C(F)(F)F)c(F)c1	TRUE
